Values were extracted from ChEMBL document CHEMBL4507327.

Biological target: G protein-coupled receptor kinase 3 (Homo sapiens)
Sequence (P35626 whole entry): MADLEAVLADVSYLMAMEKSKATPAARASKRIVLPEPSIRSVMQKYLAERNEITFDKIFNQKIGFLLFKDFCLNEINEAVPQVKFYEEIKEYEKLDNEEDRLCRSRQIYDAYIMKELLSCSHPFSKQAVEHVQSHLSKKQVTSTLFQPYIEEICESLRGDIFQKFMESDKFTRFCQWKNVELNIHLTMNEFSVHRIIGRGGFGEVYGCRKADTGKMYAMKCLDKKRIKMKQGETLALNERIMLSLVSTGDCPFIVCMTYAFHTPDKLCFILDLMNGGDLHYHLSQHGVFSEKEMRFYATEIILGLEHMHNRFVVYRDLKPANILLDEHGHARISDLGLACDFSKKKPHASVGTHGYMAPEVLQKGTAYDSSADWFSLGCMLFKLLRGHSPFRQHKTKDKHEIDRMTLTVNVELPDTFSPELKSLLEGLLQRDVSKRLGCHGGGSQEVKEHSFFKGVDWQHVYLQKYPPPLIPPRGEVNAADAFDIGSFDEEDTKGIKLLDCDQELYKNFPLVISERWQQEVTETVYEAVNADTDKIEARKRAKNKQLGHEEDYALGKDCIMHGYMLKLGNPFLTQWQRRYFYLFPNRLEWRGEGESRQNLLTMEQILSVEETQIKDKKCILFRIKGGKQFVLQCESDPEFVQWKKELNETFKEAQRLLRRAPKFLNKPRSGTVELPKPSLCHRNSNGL
measurement.label: pIC50
pIC50 is defined as minus the log10 of a concentration measured in mol/L.

Check G protein-coupled receptor kinase 3 (Homo sapiens) data and give pIC50 for CN1C(=O)[C@@H](N2CCc3cn(CC4CCS(=O)(=O)CC4)nc3C2=O)COc2ccccc21 [TP-030n] .
6.00

New cases:
Report pIC50 on G protein-coupled receptor kinase 3 (Homo sapiens) for this entry: CN1C(=O)[C@@H](N2CCc3cn(Cc4ccccc4)nc3C2=O)COc2ccccc21 [TP-030-1]
6.00

###

Biological target: UniProt P49336
Sequence (P49336 whole entry): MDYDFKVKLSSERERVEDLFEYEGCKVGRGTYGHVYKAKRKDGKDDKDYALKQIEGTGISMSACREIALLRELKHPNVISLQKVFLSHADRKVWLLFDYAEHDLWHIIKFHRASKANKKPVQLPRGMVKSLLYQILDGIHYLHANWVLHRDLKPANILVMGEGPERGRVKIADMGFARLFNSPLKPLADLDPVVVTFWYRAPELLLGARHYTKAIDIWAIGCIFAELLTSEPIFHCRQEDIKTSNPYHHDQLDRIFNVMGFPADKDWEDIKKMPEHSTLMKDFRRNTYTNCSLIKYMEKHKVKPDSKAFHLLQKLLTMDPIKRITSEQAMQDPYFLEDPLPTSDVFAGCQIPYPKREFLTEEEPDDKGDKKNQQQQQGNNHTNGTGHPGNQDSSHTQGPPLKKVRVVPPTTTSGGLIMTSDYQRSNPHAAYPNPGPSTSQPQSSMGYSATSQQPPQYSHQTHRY
measurement.label: pIC50
By convention, pIC50 is the negative base-10 log of a molar concentration.

Output reported pIC50 of the compound CN1C(=O)[C@@H](N2CCc3cn(CC4CCS(=O)(=O)CC4)nc3C2=O)COc2ccccc21 [TP-030n] on UniProt P49336.
6.00

Continuing:
Under UniProt P49336: report pIC50 of CN1C(=O)[C@@H](N2CCc3cn(Cc4ccccc4)nc3C2=O)COc2ccccc21 [TP-030-1] .
6.00

###

Biological target: Mitogen-activated protein kinase 6 (Homo sapiens, UniProt Q16659)
Sequence (Q16659 whole entry): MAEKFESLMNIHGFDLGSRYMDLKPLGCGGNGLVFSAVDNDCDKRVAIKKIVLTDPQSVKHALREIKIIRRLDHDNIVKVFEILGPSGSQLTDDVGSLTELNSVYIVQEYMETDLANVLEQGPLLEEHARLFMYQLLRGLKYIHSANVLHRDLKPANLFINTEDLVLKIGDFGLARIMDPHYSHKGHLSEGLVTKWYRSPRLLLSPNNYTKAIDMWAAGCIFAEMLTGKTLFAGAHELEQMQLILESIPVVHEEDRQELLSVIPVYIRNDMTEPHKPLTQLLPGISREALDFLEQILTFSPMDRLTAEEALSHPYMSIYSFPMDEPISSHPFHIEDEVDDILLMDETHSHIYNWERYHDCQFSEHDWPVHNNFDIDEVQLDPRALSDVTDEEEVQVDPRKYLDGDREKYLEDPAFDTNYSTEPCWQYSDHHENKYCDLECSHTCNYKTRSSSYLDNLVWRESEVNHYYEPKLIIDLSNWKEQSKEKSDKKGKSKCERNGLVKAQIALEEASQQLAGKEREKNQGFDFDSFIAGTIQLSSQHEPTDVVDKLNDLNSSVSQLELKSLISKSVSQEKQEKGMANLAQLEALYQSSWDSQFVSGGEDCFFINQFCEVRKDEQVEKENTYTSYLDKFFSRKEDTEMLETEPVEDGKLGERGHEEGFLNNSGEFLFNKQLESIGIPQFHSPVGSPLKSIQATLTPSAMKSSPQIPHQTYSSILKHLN
Assay: ERK3(MAP6LHY1) Takeda global kinase panel
// reported IC50 for each item listed
Reply with just the number (in nM).

Identify measured IC50 corresponding to CN1C(=O)[C@@H](N2CCc3cn(CC4CCS(=O)(=O)CC4)nc3C2=O)COc2ccccc21 [TP-030n]
1000

Then there is this molecule:
Look up and report measured IC50 for this entry: `CN1C(=O)[C@@H](N2CCc3cn(Cc4ccccc4)nc3C2=O)COc2ccccc21`
1000

###

# IC50 measurements, system: UniProt Q9H3Y6
# Sequence (Q9H3Y6 whole entry): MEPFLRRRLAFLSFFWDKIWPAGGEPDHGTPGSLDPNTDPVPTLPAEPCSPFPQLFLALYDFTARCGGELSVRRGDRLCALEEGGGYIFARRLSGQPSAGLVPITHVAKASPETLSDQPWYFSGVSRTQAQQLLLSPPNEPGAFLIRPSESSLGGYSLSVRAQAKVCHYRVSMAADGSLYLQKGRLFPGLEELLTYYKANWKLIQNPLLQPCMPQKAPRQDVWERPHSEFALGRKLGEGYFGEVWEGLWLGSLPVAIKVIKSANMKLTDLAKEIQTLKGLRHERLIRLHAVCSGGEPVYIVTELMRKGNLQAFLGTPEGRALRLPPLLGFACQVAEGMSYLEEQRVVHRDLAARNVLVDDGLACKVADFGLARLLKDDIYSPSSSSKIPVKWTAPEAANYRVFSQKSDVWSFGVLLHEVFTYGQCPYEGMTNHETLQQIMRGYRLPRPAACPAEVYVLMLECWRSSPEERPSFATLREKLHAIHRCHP
Response body: numeric value in nM, unit text excluded.

Quick one: give measured IC50 for `CN1C(=O)[C@@H](N2CCc3cn(Cc4ccccc4)nc3C2=O)COc2ccccc21`
1000

Here is another compound to look at.
Identify the reported IC50 for the following entry. CN1C(=O)[C@@H](N2CCc3cn(CC4CCS(=O)(=O)CC4)nc3C2=O)COc2ccccc21 [TP-030n]
1000

###

The following compounds have recorded IC50 on Cyclin-dependent kinase 7 (Homo sapiens, UniProt P50613).
Sequence (P50613 whole entry): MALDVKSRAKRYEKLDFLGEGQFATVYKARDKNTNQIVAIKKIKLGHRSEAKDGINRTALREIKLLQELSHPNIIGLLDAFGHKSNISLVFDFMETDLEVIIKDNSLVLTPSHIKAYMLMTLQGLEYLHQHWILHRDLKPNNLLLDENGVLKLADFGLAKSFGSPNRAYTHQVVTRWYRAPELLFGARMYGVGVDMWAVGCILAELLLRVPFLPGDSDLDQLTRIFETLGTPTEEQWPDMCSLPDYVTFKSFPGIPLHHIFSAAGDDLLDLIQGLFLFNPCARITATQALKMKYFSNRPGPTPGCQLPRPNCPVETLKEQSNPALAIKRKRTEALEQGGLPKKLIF
# number only, unit nM dropped from output

Give a short answer stating reported IC50 for `CN1C(=O)[C@@H](N2CCc3cn(Cc4ccccc4)nc3C2=O)COc2ccccc21` .
1000

Look up IC50 of CN1C(=O)[C@@H](N2CCc3cn(CC4CCS(=O)(=O)CC4)nc3C2=O)COc2ccccc21 [TP-030n] and report it.
1000

###

Target: Serine/threonine-protein kinase ICK (Homo sapiens, UniProt Q9UPZ9)
Sequence (Q9UPZ9 whole entry): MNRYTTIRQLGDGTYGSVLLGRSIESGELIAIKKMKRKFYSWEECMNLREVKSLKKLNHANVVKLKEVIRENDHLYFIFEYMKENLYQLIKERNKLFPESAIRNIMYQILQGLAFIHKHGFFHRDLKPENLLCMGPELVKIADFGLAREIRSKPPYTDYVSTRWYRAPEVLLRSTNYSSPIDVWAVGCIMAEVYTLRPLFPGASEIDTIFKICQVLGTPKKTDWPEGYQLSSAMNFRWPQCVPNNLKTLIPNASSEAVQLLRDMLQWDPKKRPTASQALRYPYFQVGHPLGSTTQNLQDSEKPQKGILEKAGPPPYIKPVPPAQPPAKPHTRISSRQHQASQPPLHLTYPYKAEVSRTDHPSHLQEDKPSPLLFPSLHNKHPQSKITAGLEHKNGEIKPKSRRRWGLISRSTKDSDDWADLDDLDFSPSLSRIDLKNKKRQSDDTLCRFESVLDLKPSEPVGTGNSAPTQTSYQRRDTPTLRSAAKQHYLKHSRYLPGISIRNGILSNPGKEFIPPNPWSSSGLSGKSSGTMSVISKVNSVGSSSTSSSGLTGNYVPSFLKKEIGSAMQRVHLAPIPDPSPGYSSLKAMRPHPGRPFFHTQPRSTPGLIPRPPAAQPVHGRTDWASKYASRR
Measured IC50 accompanies every entry in the list below.
Response body: numeric value in nM, unit text excluded.

Output measured IC50 for this item: CN1C(=O)[C@@H](N2CCc3cn(CC4CCS(=O)(=O)CC4)nc3C2=O)COc2ccccc21 [TP-030n]
1000

Okay, next one:
Indicate its recorded IC50; the molecule in question is CN1C(=O)[C@@H](N2CCc3cn(Cc4ccccc4)nc3C2=O)COc2ccccc21 [TP-030-1]
1000

###

Molecular target: Serine/threonine-protein kinase LATS1 (Homo sapiens, UniProt O95835)
Sequence (O95835 whole entry): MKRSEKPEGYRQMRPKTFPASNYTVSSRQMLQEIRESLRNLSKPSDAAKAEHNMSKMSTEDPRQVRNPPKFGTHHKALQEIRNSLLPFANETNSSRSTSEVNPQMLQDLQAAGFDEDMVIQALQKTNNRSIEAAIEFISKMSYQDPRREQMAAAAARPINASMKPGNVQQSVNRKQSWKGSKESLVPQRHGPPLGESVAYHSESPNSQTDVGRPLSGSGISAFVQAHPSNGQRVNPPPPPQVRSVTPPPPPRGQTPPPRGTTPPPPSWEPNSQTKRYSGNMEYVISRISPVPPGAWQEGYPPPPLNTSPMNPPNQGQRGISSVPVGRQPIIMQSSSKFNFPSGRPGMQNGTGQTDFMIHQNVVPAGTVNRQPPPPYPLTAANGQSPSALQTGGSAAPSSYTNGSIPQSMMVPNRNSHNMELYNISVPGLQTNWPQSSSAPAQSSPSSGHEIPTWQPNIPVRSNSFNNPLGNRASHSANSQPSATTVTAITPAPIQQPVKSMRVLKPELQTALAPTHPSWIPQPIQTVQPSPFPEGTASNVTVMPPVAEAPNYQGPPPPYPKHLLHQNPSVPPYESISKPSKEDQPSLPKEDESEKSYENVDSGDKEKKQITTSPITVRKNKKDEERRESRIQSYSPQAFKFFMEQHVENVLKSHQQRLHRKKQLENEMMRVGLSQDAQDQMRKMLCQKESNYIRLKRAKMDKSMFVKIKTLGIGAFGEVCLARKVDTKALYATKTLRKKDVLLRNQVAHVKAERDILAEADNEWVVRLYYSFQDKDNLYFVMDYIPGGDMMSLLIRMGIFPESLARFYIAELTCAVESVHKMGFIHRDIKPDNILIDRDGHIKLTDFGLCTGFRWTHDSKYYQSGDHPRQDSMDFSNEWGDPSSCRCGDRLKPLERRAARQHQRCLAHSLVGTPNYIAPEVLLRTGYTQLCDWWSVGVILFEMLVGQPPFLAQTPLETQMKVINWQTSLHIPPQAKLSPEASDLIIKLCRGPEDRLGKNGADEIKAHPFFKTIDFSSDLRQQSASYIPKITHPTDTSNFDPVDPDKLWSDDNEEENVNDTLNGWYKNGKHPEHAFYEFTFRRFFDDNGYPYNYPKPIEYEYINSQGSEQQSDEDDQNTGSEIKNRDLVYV
measurement.label: pIC50
# pIC50: negative log10 of molar concentration; output just the value

State its pIC50: `CN1C(=O)[C@@H](N2CCc3cn(Cc4ccccc4)nc3C2=O)COc2ccccc21`
6.00

###

The next entries give measured IC50 for Interleukin-1 receptor-associated kinase 3 (Homo sapiens, UniProt Q9Y616).
Give just the numeric value; µM need not be written.

Return reported IC50. Input compound: `CN1C(=O)[C@@H](N2CCc3cn(Cc4ccccc4)nc3C2=O)COc2ccccc21`
1

Others:
Consider the compound CN1C(=O)[C@@H](N2CCc3cn(CC4CCS(=O)(=O)CC4)nc3C2=O)COc2ccccc21 [TP-030n] and give its recorded IC50.
1
